melting point reference

# annotated cases, reported melting point shown
compound=COC(=O)Cc1ccc(C#N)cc1 experimental_value="40 to 41 °C"
compound=O=Cc1cccc(C=Cc2ccccc2)c1 experimental_value="90 °C"
compound=CCC(=O)NN=C(Nc1ccc([N+](=O)[O-])cc1)c1ccc(OC)cc1 experimental_value="200 °C"
compound=CCCCNC(=O)c1cccc(-c2ccnc3c(C(=O)c4cccs4)cnn23)c1 experimental_value="172 to 174 °C"
compound="CCCc1c(OCC2CO2)ccc(C(C)=O)c1O (stereo unspecified)" experimental_value="53 to 55 °C"

### Prompt Item COc1ccc(C2=C(CO)c3ccc(OC)cc3CC2)cc1 has what recorded melting point?
### Response 121 °C

### Prompt Item O=C(O)c1cn(CCCO)c(=O)c2cc(Cl)ccc12 has what recorded melting point?
### Response 193 °C

### Prompt Item O=Cc1cccc(C=O)c1O has what recorded melting point?
### Response 122 to 125 °C

### Prompt Item CCCNC(Nc1cc(C(F)(F)F)cc(C(F)(F)F)c1)=C(C#N)S(=O)(=O)c1ccc(Cl)cc1 has what recorded melting point?
### Response 196 to 198 °C

###

property_label: melting point

# annotated cases, reported melting point shown
compound=O=C(O)c1ccccc1OCCN1CCC(c2cn(Cc3ccco3)c3cc(F)ccc23)CC1 experimental_value="174 to 175 °C"
compound=Oc1ccc2nc(-c3ccc(O)c(F)c3)cc(-c3ccc(C(F)(F)F)cc3)c2c1 experimental_value="299 to 300 °C"
compound=Cc1c(Cl)cncc1Cl experimental_value="46 to 47 °C"

Now for another entry.
### Prompt Item CCn1cc(C(=O)O)c(=O)c2cc(F)c(N3CCN(C)CC3)nc21 has what recorded melting point?
### Response 228 to 230 °C

###

melting point reference

# annotated cases, reported melting point shown
molecule="CN(C)CC1CCCCN1CC(=O)N1c2ccccc2C(=O)Nc2cccnc21 (stereo unspecified)" property_label="melting point" experimental_value="189 to 190 °C"
molecule=O=C(C=Cc1ccc(OCc2ccccc2)c([N+](=O)[O-])c1)N1CCCCC1 property_label="melting point" experimental_value="155 to 156 °C"
molecule=COC(=O)[C@H](O)[C@@H](NC(=O)c1ccccc1)c1ccccc1 property_label="melting point" experimental_value="184 to 185 °C"
molecule="CC(=O)Nc1ccc(SC2OC(CO)C(O)C(O)C2O)cc1 (stereo unspecified)" property_label="melting point" experimental_value="160 to 163 °C"
molecule=CN(C(=O)c1ccc(Cn2cnc3cnccc32)cc1)C1CCCCC1 property_label="melting point" experimental_value="121 to 123 °C"
molecule=ClCc1ccc(OCc2coc(/C=C/c3ccccc3)n2)cc1 property_label="melting point" experimental_value="116 to 117 °C"

### Prompt Item Cn1ncnc1-c1cc(S(C)(=O)=O)c2[nH]c(=O)ccc2c1 has what recorded melting point?
### Response 226 to 232 °C

### Prompt Item CN1CCNC1=C[N+](=O)[O-] has what recorded melting point?
### Response 142 to 144 °C

### Prompt Item Cn1c(=O)c2[nH]c(/C=C/c3ccc4c(c3)OCO4)nc2n(C)c1=O has what recorded melting point?
### Response > 275 °C

### Prompt Item Ic1ccc2c(c1)Sc1ccc(I)cc1S2 has what recorded melting point?
### Response 169 to 170 °C

### Prompt Item Cc1c(C)c(-c2cccc(CO)c2)c(C)c(C)c1OCCCS(C)(=O)=O has what recorded melting point?
### Response 132 to 134 °C

### Prompt Item CCN(CC)C(=O)c1ccc(C(=C2CCNCC2)c2cccc(OC)c2)cc1 has what recorded melting point?
### Response > 90 °C

### Prompt Item CCOC(C#N)NC(=O)c1ccccc1 (stereo unspecified) has what recorded melting point?
### Response 107 to 110 °C

### Prompt Item O=C(Nc1ccc2[nH]c(CO)cc2c1)c1cc2ccccc2o1 has what recorded melting point?
### Response 164 to 165 °C

### Prompt Item O=c1nc(-c2ccccc2)c2cc([N+](=O)[O-])ccc2n1CC12CC3CC(CC(C3)C1)C2 has what recorded melting point?
### Response 228 to 231 °C

### Prompt Item Nc1ccccc1N1CCN(C=O)CC1 has what recorded melting point?
### Response 129 to 133 °C

### Prompt Item CC(C)Oc1ccc(F)c(-c2nn(C(C)c3oc4ccccc4c(=O)c3-c3cccc(F)c3)c3ncnc(N)c23)c1 (stereo unspecified) has what recorded melting point?
### Response 198 to 201 °C

### Prompt Item CN(c1ccccc1C=CC1=NCCC1)C1CCCCC1 has what recorded melting point?
### Response 163 to 164 °C

### Prompt Item Cn1c(COc2ccc(CC3SC(=O)N(C(c4ccccc4)(c4ccccc4)c4ccccc4)C3=O)cc2)nc2ccc(Cl)nc21 (stereo unspecified) has what recorded melting point?
### Response 97 to 99 °C

### Prompt Item CC(=O)NC[C@H]1CN(c2ccc(N3CCC4(CCOCCO4)CC3)c(F)c2)C(=O)O1 has what recorded melting point?
### Response 182 to 184 °C

### Prompt Item Nc1c(Nc2cccc3cnccc23)c(=O)c1=O has what recorded melting point?
### Response 215 °C

###

melting point reference

### Prompt Item COc1c(O)c(C)c2c(c1OC)OC(C)(CN1CCC(c3ccccc3)CC1)C2 (stereo unspecified) has what recorded melting point?
### Response 112 to 113 °C

### Prompt Item COC(=O)NC1CCc2ccc(Cl)cc2C1 (stereo unspecified) has what recorded melting point?
### Response 99 to 101 °C

### Prompt Item Cc1cc2ncnn2nc1OCC(C)(C)CS(N)(=O)=O has what recorded melting point?
### Response 216 to 218 °C

### Prompt Item CNC(=O)c1cccc(C(C(N)=O)c2c[nH]c3ccccc23)c1 (stereo unspecified) has what recorded melting point?
### Response 168 to 169 °C

###

melting point reference

# annotated cases, reported melting point shown
compound=O[C@H](CCc1cccnc1)COc1ccc(C#Cc2ccccc2)cc1 property_label="melting point" experimental_value="67 to 68 °C"
compound=N#CCC(=O)c1nn(-c2ccccc2)c2c1COc1c(CN3CCOCC3)cc(F)cc1-2 property_label="melting point" experimental_value="187 to 189 °C"
compound=Cc1nn(-c2cc(Oc3ccc([N+](=O)[O-])cc3Cl)c(Cl)cc2Cl)c(=O)n1C(F)F property_label="melting point" experimental_value="135 to 136 °C"
compound=Nc1ccccc1NC(=O)c1ccc(CCC(=O)NCc2cccnc2)cc1 property_label="melting point" experimental_value="168 to 170 °C"
compound="CS(=O)(=O)OC1CC(n2ccc(=O)[nH]c2=O)OC1COC(c1ccccc1)(c1ccccc1)c1ccccc1 (centres undefined)" property_label="melting point" experimental_value="106 to 108 °C"
compound=Cc1cc(Cl)nc(N(C(N)=O)c2ccccc2[N+](=O)[O-])n1 property_label="melting point" experimental_value="155 °C"

### Prompt Item Cn1c(=S)n(CCN2CCC(Nc3nc4ccccc4n3Cc3ccco3)CC2)c(=O)c2ccccc21 has what recorded melting point?
### Response 188 °C

### Prompt Item CC(C)(C)NC(=O)C1CC(C)(C)NC(C)(C)C1=NO (centres undefined) has what recorded melting point?
### Response 136 to 139 °C

### Prompt Item CCN1c2c(oc(=O)n(-c3ccccn3)c2=O)-c2ccccc2S1(=O)=O has what recorded melting point?
### Response 268 to 270 °C

###

melting point reference

# annotated cases, reported melting point shown
compound=CCCCCN(CCCCC)C(=O)N1CCN(C(=O)N(c2ccccc2)c2ccccc2)[C@H](CO)C1 property_label="melting point" experimental_value="133 to 134 °C"
compound=O=C(O)CCc1cc(OCc2ccccc2)nn1Cc1ccc(Cl)cc1Cl property_label="melting point" experimental_value="98 to 101 °C"
compound=Oc1cc(C(F)(F)F)[nH]n1 property_label="melting point" experimental_value="211 to 215 °C"
compound="CCN(C=O)C1CCC(CNc2nc3c(s2)CCOc2ccccc2-3)CC1 (stereo not given)" property_label="melting point" experimental_value="210 to 213 °C"

### Prompt Item COc1c(C(=O)O)n(Cc2ccccc2)c2ccccc12 has what recorded melting point?
### Response 115 to 117 °C

### Prompt Item CCC(OC(=O)COC)c1ccc(Cl)c2nc3n(c12)CCCN3c1ccc(Cl)cc1Cl (stereo not given) has what recorded melting point?
### Response 156 to 158 °C

### Prompt Item Cc1c(CC(=O)N(C)O)c2cc(OCc3nc4ccccc4s3)ccc2n1Cc1ccc(Cl)cc1 has what recorded melting point?
### Response 174 to 175 °C

### Prompt Item O[C@H]1CC[C@H](c2ccc(Br)cc2)CC1 has what recorded melting point?
### Response 110 to 111 °C

### Prompt Item Fc1cccc2c(NCCc3nc(-c4ccccc4)cs3)ccnc12 has what recorded melting point?
### Response 134 to 135 °C

### Prompt Item CCn1c(C)c(C2(N(c3ccccc3)c3ccccc3)OC(=O)c3cccnc32)c2ccccc21 (stereo not given) has what recorded melting point?
### Response 132 to 136 °C
